Molecular target: F508delCFTR cell surface expression in CFBE41o-F508delCFTR-HRP cells (Homo sapiens, UniProt P13569, DEL508-508)
Construct: fused on or other part: Horseradish peroxidase (HRP) reporter inserted in the fourth exofacial (extracellular) loop of CFTR; expression is doxycycline-inducible
Sequence (P13569 with tags, fused parts or gaps DEL508-508 limits assumed): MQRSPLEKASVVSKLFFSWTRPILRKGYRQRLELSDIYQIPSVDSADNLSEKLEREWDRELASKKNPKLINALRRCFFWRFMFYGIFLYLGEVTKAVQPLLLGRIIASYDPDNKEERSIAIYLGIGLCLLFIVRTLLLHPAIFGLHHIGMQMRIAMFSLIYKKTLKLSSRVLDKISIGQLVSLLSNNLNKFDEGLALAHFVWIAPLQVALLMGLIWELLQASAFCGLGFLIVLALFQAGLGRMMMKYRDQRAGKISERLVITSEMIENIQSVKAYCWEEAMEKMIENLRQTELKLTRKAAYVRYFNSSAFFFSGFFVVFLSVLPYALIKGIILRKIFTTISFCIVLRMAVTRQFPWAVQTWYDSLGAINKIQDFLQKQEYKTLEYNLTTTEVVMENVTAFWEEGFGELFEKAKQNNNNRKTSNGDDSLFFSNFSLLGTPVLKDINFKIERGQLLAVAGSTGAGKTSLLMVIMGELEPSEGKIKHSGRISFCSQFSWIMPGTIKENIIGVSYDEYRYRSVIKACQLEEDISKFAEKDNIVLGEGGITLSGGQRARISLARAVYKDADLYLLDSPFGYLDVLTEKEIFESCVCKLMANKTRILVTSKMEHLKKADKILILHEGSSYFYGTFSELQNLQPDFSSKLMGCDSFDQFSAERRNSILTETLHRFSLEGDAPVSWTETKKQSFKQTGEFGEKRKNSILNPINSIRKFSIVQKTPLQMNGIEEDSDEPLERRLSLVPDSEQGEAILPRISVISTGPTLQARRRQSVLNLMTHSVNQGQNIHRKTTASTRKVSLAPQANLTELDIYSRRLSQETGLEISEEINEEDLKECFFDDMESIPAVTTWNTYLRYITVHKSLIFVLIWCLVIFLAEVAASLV
Sequence (P13569 919-1480 limits assumed, stated change not applied): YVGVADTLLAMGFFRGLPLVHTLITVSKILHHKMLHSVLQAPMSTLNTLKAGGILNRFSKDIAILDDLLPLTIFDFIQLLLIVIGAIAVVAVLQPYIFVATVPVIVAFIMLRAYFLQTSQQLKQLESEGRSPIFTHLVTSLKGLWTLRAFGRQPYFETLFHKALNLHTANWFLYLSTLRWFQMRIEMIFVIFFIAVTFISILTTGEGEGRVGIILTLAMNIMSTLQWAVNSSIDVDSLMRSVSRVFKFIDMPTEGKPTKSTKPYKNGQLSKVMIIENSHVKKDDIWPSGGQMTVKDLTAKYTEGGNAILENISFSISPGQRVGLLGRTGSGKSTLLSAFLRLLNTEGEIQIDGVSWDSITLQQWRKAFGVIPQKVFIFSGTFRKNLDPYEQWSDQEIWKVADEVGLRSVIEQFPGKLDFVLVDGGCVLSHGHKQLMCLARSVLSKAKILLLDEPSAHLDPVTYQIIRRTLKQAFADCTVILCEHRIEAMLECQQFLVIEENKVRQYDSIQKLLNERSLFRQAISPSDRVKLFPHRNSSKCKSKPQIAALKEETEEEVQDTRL
Test: Cell Surface Expression-Horse Radish Peroxidase (CSE-HRP) Assay
Format: cell-based
Conditions: maximum at any tested concentration, normalized to on-plate positive control (3 μM)
observed-property: Maximum % activity (%)

| compound | observed-property | result-value |
| --- | --- | --- |
| COC(=O)c1cccc(-n2nc(C3CC3)cc(NC(=O)[C@@]3(C)COc4cc5c(cc43)OC(F)(F)O5)c2=O)c1 | Maximum % activity (%) | 112 |
| Cc1ccc(NC(=O)[C@]2(C)COc3cc4c(cc32)OC(F)(F)O4)nc1-c1cccc(C(=O)OC(C)(C)C)c1 | Maximum % activity (%) | 3 |
| COc1ccc2c(c1)O[C@@H](c1ccc(Br)nc1)C[C@H]2NC(=O)[C@@]1(C)COc2cc3c(cc21)OC(F)(F)O3 | Maximum % activity (%) | 118 |
| CC1(C(=O)Nc2cccc(F)n2)COc2cc3c(cc21)OC(F)(F)O3 (stereo not shown) | Maximum % activity (%) | 70 |
| COc1ccc2c(c1)O[C@@H](c1ccc(C(=O)N3CCC(F)(F)CC3)cc1)C[C@H]2NC(=O)[C@@]1(C)COc2cc3c(cc21)OC(F)(F)O3 | Maximum % activity (%) | 157 |
| C[C@]1(C(=O)N[C@@H]2C[C@H]([C@H]3CC[C@H](C(=O)NCCO)CC3)Oc3cc(OC(F)(F)F)ccc32)COc2cc3c(cc21)OC(F)(F)O3 | Maximum % activity (%) | 157 |
| COC(=O)c1cccc([C@H]2C[C@@H](NC(=O)C3(C)COc4cc5c(cc43)OC(F)(F)O5)c3ccc(OC)cc3O2)c1 (stereo partly shown) | Maximum % activity (%) | 121 |
| C[C@]1(C(=O)N[C@@H]2C[C@H](c3ccc(C(=O)O)cn3)Oc3cc(OC(F)F)ccc32)COc2cc3c(cc21)OC(F)(F)O3 | Maximum % activity (%) | 132 |
| COc1ccc2c(c1)O[C@@H](c1cnc([C@H](O)CO)cn1)C[C@H]2NC(=O)[C@@]1(C)COc2cc3c(cc21)OC(F)(F)O3 (single isomer, unassigned) | Maximum % activity (%) | 126 |
| COc1ccc2c(c1)O[C@@H](C1CCC(C(=O)O)CC1)C[C@H]2NC(=O)[C@]1(C)COc2cc3c(cc21)OC(F)(F)O3 (stereo partly shown) | Maximum % activity (%) | 99 |
| C[C@]1(C(=O)N[C@@H]2C[C@H](c3ccc(C(=O)O)cc3)Oc3cc(OC(F)F)ccc32)COc2cc3c(cc21)OC(F)(F)O3 | Maximum % activity (%) | 158 |
| C=Cc1cnc([C@H]2C[C@@H](NC(=O)[C@@]3(C)COc4cc5c(cc43)OC(F)(F)O5)c3ccc(OC)cc3O2)cn1 | Maximum % activity (%) | 115 |
| CC(C)CN1CC2CN(c3cccc(NC(=O)C4(C)COc5cc6c(cc54)OC(F)(F)O6)n3)CC2C1 (stereo not shown) | Maximum % activity (%) | 89 |
| C[C@]1(C(=O)Nc2cccc(N3CCC(c4ccc(F)cc4)C3)n2)COc2cc3c(cc21)OC(F)(F)O3 (stereo partly shown) | Maximum % activity (%) | 98 |
| COc1ccc2c(c1)O[C@@H](c1ccc(=O)[nH]n1)C[C@H]2NC(=O)[C@@]1(C)COc2cc3c(cc21)OC(F)(F)O3 | Maximum % activity (%) | 130 |
| COc1ccc2c(c1)O[C@@H](c1ccc(C(=O)N3CCN(CCO)CC3)cn1)C[C@H]2NC(=O)[C@@]1(C)COc2cc3c(cc21)OC(F)(F)O3 | Maximum % activity (%) | 117 |
| C[C@]1(C(=O)N[C@@H]2C[C@H](c3cccc(C(=O)O)c3)Oc3ccccc32)COc2cc3c(cc21)OC(F)(F)O3 | Maximum % activity (%) | 156 |
| COc1ccc2c(c1)O[C@@H](c1ccc(C(=O)NC3CCS(=O)(=O)CC3)cn1)C[C@H]2NC(=O)[C@@]1(C)COc2cc3c(cc21)OC(F)(F)O3 | Maximum % activity (%) | 104 |
| COC(=O)[C@H]1CN(c2cccc(NC(=O)[C@@]3(C)COc4cc5c(cc43)OC(F)(F)O5)n2)C[C@@H]1c1ccccc1 | Maximum % activity (%) | 131 |
| C[C@]1(C(=O)Nc2cc(C3CC3)nn(-c3cccc(C(=O)O)c3)c2=O)COc2cc3c(cc21)OC(F)(F)O3 | Maximum % activity (%) | 155 |
| C[C@]1(C(=O)Nc2cccc(-c3cccc(C(=O)O)c3F)n2)COc2cc3c(cc21)OC(F)(F)O3 | Maximum % activity (%) | 136 |
| Cc1ccc(NC(=O)C2(C)COc3cc4c(cc32)OC(F)(F)O4)nc1-c1cccc(C(=O)OC(C)(C)C)c1 (stereo not shown) | Maximum % activity (%) | 100 |
| COc1ccc2c(c1)O[C@@H](c1ccc(C(=O)NC(C)(C)CO)cn1)C[C@H]2NC(=O)[C@@]1(C)COc2cc3c(cc21)OC(F)(F)O3 | Maximum % activity (%) | 113 |
| CC1(C)OC[C@@H](Cn2nc(-c3ccccc3)cc(NC(=O)[C@]3(C)COc4cc5c(cc43)OC(F)(F)O5)c2=O)O1 | Maximum % activity (%) | 3 |
| C[C@]1(C(=O)N[C@@H]2C[C@H](C3CCN(C(=O)OCc4ccccc4)CC3)Oc3cc(OC(F)(F)F)ccc32)COc2cc3c(cc21)OC(F)(F)O3 | Maximum % activity (%) | 199 |

Reference source for all entries: patent US9840513B2
